system: HCT116 MTAP-/-; assay: Inhibition of cellular proliferation (Cell Titer Glo), HCT116 MTAP-/-; assay type: cell-based, human; conditions: Homo sapiens, HCT-116, 96 h, Table 5a, 4 days, read-out: 4 Day Relative Growth Inhibition (MTAP −/−)
IC50 values by entry

Here's what some known entries look like.
In [3]: df
Out[3]:
                               given_smiles  test_result
0  [2H]C([2H])([2H])Oc1ccc(N2C(=O)N(c3ccc4nn(CC(F)(F)F)cc4c3)Cc3ccc(OCC(F)F)nc32)cc1  0.1 to 1 µM
1  CCOc1cnc2c(c1)N(c1ccc(OC(F)F)cc1)C(=O)N(c1ccc3nn(C)cc3c1)C2  0.1 to 1 µM
2  O=C1N(c2ccc3ncsc3c2)Cc2ccc(OCC(F)F)nc2N1c1ccc(OC(F)F)cc1  0.1 to 1 µM
3  Cn1cc2cc(N3Cc4ncc(NCC(F)(F)F)nc4N(c4ccc(OC(F)F)cc4)C3=O)ccc2n1     < 0.1 µM
4  COc1ccc(N2C(=O)N(c3ccc4nn(C)cc4c3)Cc3cnc(NCC(F)(F)F)nc32)cc1     < 0.1 µM
5  Cc1nc2ccc(N3Cc4cnc(NCC(F)(F)F)nc4N(c4ccc(OC(F)F)cc4)C3=O)cc2n1C  0.1 to 1 µM

// switching to the query molecule
## Input Input Cn1cc2cc(N3Cc4ccc(OCC(F)F)nc4N(c4ccc5c(c4)ncn5C)C3=O)ccc2n1 , output reported IC50.
## Output 0.1 to 1 µM

###

# IC50 per entry
tested on: HCT116 MTAP-/-; experiment: Inhibition of cellular proliferation (Cell Titer Glo), HCT116 MTAP-/-; format: cell-based, human; conditions: Homo sapiens, HCT-116, 96 h, Table 5a, 4 days, read-out: 4 Day Relative Growth Inhibition (MTAP −/−)

Example cases with answers are listed next.
>>> df
                               given_smiles  target_of_assay  property     test_result
0  COc1ccc(N2C(=O)N(c3ccc4[nH]cnc4c3)Cc3cnc(NCC(F)(F)F)nc32)cc1   HCT116 MTAP-/-      IC50  100 to 1000 nM
1  [2H]C([2H])([2H])Oc1ccc(N2C(=O)N(c3ccc4nn(C)c(C)c4c3)Cc3ccc(OCC(F)F)nc32)cc1   HCT116 MTAP-/-      IC50        < 100 nM
2  CCCc1ccc2c(n1)N(c1ccc(OC)cc1)C(=O)N(c1ccc3nn(C)cc3c1)C2   HCT116 MTAP-/-      IC50        < 100 nM
3  COc1ccc(N2C(=O)N(c3ccc4nn(C)cc4c3)Cc3c(C)nc(NCC(F)(F)F)nc32)cc1   HCT116 MTAP-/-      IC50        < 100 nM
4  COc1ccc(N2Cc3cnc(NCC(F)(F)F)nc3N(c3ccc(-c4c[nH]cn4)cc3)C2=O)cc1   HCT116 MTAP-/-      IC50  100 to 1000 nM
5  Cn1cc2cc(N3Cc4ccc(OCC(F)F)nc4N(c4ccc5sncc5c4)C3=O)ccc2n1   HCT116 MTAP-/-      IC50  100 to 1000 nM
6  Cn1cc2cc(N3Cc4ccc(OCC(F)F)nc4N(c4ccc(O)cc4)C3=O)ccc2n1   HCT116 MTAP-/-      IC50  100 to 1000 nM
7  Cn1cc2cc(N3Cc4cnc(NCC(F)(F)F)nc4N(c4ccc(OC(F)F)cc4)C3=O)ccc2n1   HCT116 MTAP-/-      IC50        < 100 nM
8  CCOc1ccc2c(n1)N(c1ccc(OC(F)F)cc1)C(=O)N(c1ccc(OC)cc1)C2   HCT116 MTAP-/-      IC50  100 to 1000 nM
9  [2H]C([2H])([2H])Oc1ccc(N2C(=O)N(c3ccc4nn(C)cc4c3)Cc3ncc(OCC(F)F)nc32)cc1   HCT116 MTAP-/-      IC50        < 100 nM

## Input // output IC50; input [2H]C([2H])([2H])Oc1ccc(N2C(=O)N(c3ccc4nc(C)n(C)c4c3)Cc3ccc(OC(C)C)nc32)cc1 ; system HCT116 MTAP-/-
## Output < 100 nM

## Input Determine reported IC50 for Cn1cc2cc(N3Cc4ccc(OCC(F)F)nc4N(c4ccc(NC(N)=O)cc4)C3=O)ccc2n1 ; test system: HCT116 MTAP-/-.
## Output < 100 nM

## Input Report value: IC50, system: HCT116 MTAP-/-, compound: [2H]C([2H])([2H])Oc1ccc(N2C(=O)N(c3ccc4nn(C)cc4c3)Cc3cnc(NCC(F)(F)F)nc32)cc1
## Output < 100 nM

## Input GET IC50 | system: HCT116 MTAP-/- | item: Cn1cc2cc(N3Cc4ccc(OCC(F)F)nc4N(c4ccc5[nH]ncc5c4)C3=O)ccc2n1
## Output 100 to 1000 nM

## Input Enter IC50 (test system HCT116 MTAP-/-) for COc1ccc(N2Cc3ccc(NCC(F)(F)F)nc3N(c3ccc(OC(F)F)cc3)C2=O)cc1
## Output 100 to 1000 nM
